# EXPERIMENTAL SYSTEM: RFLAT-1 C-terminal portion (aa 59-288) (homo sapien, UniProt Q9Y2Y9 SEQ:59-288)
# Sequence (Q9Y2Y9 other isoform, or with tags, fused parts or gaps): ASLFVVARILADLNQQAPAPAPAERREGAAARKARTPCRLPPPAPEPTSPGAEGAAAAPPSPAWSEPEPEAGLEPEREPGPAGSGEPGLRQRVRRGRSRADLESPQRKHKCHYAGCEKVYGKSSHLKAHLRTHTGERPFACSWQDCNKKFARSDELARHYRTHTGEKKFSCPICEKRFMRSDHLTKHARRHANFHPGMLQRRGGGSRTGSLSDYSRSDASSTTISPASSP
# PROTOCOL: EMSA
# MEASUREMENT CONTEXT: tags: His6 (pET-28a); label: 32P

>  <BINDER>
B probe (dsDNA) DNA 1: AATTCGCTAGGGGATGCCCCTCAACTGCG DNA 2: CGCAGTTGAGGGGCATCCCCTAGCGAATT

>  <binding result>
no binding

$$$$
>  <BINDER>
A probe (dsDNA) DNA 1: AATTCGTTGCTATTTTGGAAACTCCCCTTG DNA 2: CAAGGGGAGTTTCCAAAATAGCAACGAATT

>  <binding result>
binds

$$$$
>  <BINDER>
C probe (dsDNA) DNA 1: AATTCTCTAGATGAGAGAGCAGTGAGGGAGAGACG DNA 2: CGTCTCTCCCTCACTGCTCTCTCATCTAGAGAATT

>  <binding result>
no binding

$$$$
>  <BINDER>
E probe (dsDNA) DNA 1: AATTCTTTGTGCAATTTCACTTATGATACCG DNA 2: CGGTATCATAAGTGAAATTGCACAAAGAATT

>  <binding result>
no binding

$$$$
>  <BINDER>
kB probe (dsDNA) DNA 1: AATTCGTCAGAGGGGACTTTCCGAGAG DNA 2: CTCTCGGAAAGTCCCCTCTGACGAATT

>  <binding result>
no binding

$$$$
